Recorded values, source BindingDB's records for doi:10.1016/s0960-894x(02)00682-0.

- test-method-notes: Inhibitory concentration against Human pancreatic Serine protease chymotrypsin
pIC50: −log10 of the molar value.
Measured pIC50, listed per entry for reference.

Entry under review: CC(C)[C@H](NC(=O)[C@H](CCC(=O)O)NC(=O)[C@@H](N)CC(=O)O)C(=O)N[C@H](C(=O)N1CCC[C@H]1C(=O)N[C@@H](CCc1ccc(C2CCCCC2)cc1)B1O[C@@H]2C[C@@H]3C[C@@H](C3(C)C)[C@]2(C)O1)C(C)C [Peptide Boronic Acid analogue] . Reported pIC50? < 4.22

Entry under review: CC(C)[C@H](NC(=O)[C@H](CCC(=O)O)NC(=O)[C@@H](N)CC(=O)O)C(=O)N[C@H](C(=O)N1CCC[C@H]1C(=O)N[C@@H](CCc1ccc(C(C)(C)C)cc1)B1O[C@@H]2C[C@@H]3C[C@@H](C3(C)C)[C@]2(C)O1)C(C)C [Peptide Boronic Acid analogue] . Reported pIC50? < 4.22

Entry under review: CC(C)[C@H](NC(=O)[C@H](CCC(=O)O)NC(=O)[C@@H](N)CC(=O)O)C(=O)N[C@H](C(=O)N1CCC[C@H]1C(=O)N[C@@H](CCc1ccc(Oc2ccccc2)cc1)B1O[C@@H]2C[C@@H]3C[C@@H](C3(C)C)[C@]2(C)O1)C(C)C [Peptide Boronic Acid analogue] . Reported pIC50? < 4.22

Entry under review: COc1ccc(CC[C@H](NC(=O)[C@@H]2CCCN2C(=O)[C@@H](NC(=O)[C@@H](NC(=O)[C@H](CCC(=O)O)NC(=O)[C@@H](N)CC(=O)O)C(C)C)C(C)C)B2O[C@@H]3C[C@@H]4C[C@@H](C4(C)C)[C@]3(C)O2)cc1 [Peptide Boronic Acid analogue] . Reported pIC50? 4.70

Entry under review: CC(C)c1ccc(CC[C@H](NC(=O)[C@@H]2CCCN2C(=O)[C@@H](NC(=O)[C@@H](NC(=O)[C@H](CCC(=O)O)NC(=O)[C@@H](N)CC(=O)O)C(C)C)C(C)C)B2O[C@@H]3C[C@@H]4C[C@@H](C4(C)C)[C@]3(C)O2)cc1 [Peptide Boronic Acid analogue] . Reported pIC50? < 4.22

---

- experimental-target: Chymotrypsin-C (Homo sapiens, UniProt Q99895)
- Sequence (Q99895 whole entry): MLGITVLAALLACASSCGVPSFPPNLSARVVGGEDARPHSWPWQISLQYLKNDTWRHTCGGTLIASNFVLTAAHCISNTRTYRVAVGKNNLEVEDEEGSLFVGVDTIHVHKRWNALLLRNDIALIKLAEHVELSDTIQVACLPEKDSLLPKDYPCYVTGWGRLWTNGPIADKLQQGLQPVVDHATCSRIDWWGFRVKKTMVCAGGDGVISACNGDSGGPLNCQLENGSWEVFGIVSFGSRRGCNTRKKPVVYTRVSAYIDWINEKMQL
- test-method-notes: Inhibitory concentration against Human pancreatic Serine protease chymotrypsin
Peptide text beside a SMILES is read from it. * marks the point of attachment. X14 = CCCC[C@H](N*)B1O[C@@H]2C[C@@H]3C[C@@H](C3(C)C)[C@]2(C)O1
measured-endpoint: IC50 (nM)

Some compounds with recorded IC50:
compound	experimental-target	measured-endpoint	data-value
Cc1ccc(CC[C@H](NC(=O)[C@@H]2CCCN2C(=O)[C@@H](NC(=O)[C@@H](NC(=O)[C@H](CCC(=O)O)NC(=O)[C@@H](N)CC(=O)O)C(C)C)C(C)C)B2O[C@@H]3C[C@@H]4C[C@@H](C4(C)C)[C@]3(C)O2)cc1 [Peptide Boronic Acid analogue]	Chymotrypsin-C (Homo sapiens, UniProt Q99895)	IC50	3700
CC(C)[C@H](NC(=O)[C@H](CCC(=O)O)NC(=O)[C@@H](N)CC(=O)O)C(=O)N[C@H](C(=O)N1CCC[C@H]1C(=O)N[C@@H](CCCCc1ccccc1)B1O[C@@H]2C[C@@H]3C[C@@H](C3(C)C)[C@]2(C)O1)C(C)C [Peptide Boronic Acid analogue]	Chymotrypsin-C (Homo sapiens, UniProt Q99895)	IC50	1900

[I] CCCC[C@H](NC(=O)[C@@H]1CCCN1C(=O)[C@@H](NC(=O)[C@@H](NC(=O)[C@H](CCC(=O)O)NC(=O)[C@@H](N)CC(=O)O)C(C)C)C(C)C)B1O[C@@H]2C[C@@H]3C[C@@H](C3(C)C)[C@]2(C)O1 [Peptide Boronic Acid analogue] (H-DEVVP-X14)
[II] CC(C)[C@H](NC(=O)[C@H](CCC(=O)O)NC(=O)[C@@H](N)CC(=O)O)C(=O)N[C@H](C(=O)N1CCC[C@H]1C(=O)N[C@@H](CCc1ccc(C(F)(F)F)cc1)B1O[C@@H]2C[C@@H]3C[C@@H](C3(C)C)[C@]2(C)O1)C(C)C [Peptide Boronic Acid analogue]
Of the two listed items, which has the higher IC50? First: I Second: II When you have decided, please share the label of that item. II
